# Tested on: DU-145 prostate
# measurementDescription: NCI-60 one-dose screen, 48 h
# experimentalParameters: 10 µM unless noted
About 83,000 compounds went through this panel and 20% of them were active in at least one assay; those are over-represented in the sample as a whole. The source made the active and inactive calls. The calls were made as follows: active = growth percent below 10; inactive = the rest.
Log the outcome using a class from active, inactive

Cc1ccc(S(=O)(=O)Nc2cccc(Cn3c(=O)[nH]c4ccc(Oc5ncccn5)cc4c3=O)c2)cc1 : inactive
COc1ccc(OC)c(Cn2cc3c(c2)-c2oncc2CC3)c1 : inactive
COc1ccc(-c2nnc(SCC(=O)Nc3ccc(C(=O)/C=C/c4cc(OC)c(OC)c(OC)c4)cc3)n2-c2ccccc2)cc1OC : active
CC(O)C(N)=O (stereo not drawn) : inactive
CCOC(=O)c1c(C)oc2ncnc(Nc3ccc(NC(=O)Nc4ccc(CC)cc4)cc3)c12 : inactive
CC(C)(CNC1CCCCC1)OC(=O)c1ccccc1 : inactive
COc1ccc(Cn2cc3c(c2-c2ccc(O)cc2)CCc2cnoc2-3)cc1 : inactive
CN(C)CCOC(=O)C(C)(C)C : inactive

Consider the additional compound presented here.
Query: recorded result category for Cc1ccc(C(=O)Nc2ccc(CN3CCN(C)CC3)c(C(F)(F)F)c2)cc1C#Cc1cnc(N)c2ccc(F)cc12 in this test
active

----------
# Tested on: EKVX NSCLC
# measurementDescription: NCI-60 one-dose screen, 48 h (100 = growth as untreated, 0 = no growth, -100 = all killed)
# experimentalParameters: 10 µM
About 83,000 compounds went through this panel and 20% of them were active in at least one assay; those are over-represented in the sample as a whole.
measurementKind: growth (%)
Answers are plain numbers, in %.

O=C(/C=C/c1ccc(Br)cc1)c1ccccc1 : 109
CCOc1ccc2nc3ccc(Cl)cc3nc2c1 : 75
CC(=O)CCS(=O)c1ccccc1 (stereo not drawn) : 106
CC[C@H](Nc1ncnc2nc[nH]c12)c1nc2cccc(NCc3ccc(C(=O)NO)nc3)c2c(=O)n1-c1ccccc1 : 77.1
CC(=O)N1CCN(CCNC(=O)n2cc(-c3ccncc3)c(-c3ccc(O)c(Cl)c3)n2)CC1 : 133
CC(C)(C)OC(=O)N1C/C(=C\c2ccccc2)C(=O)/C(=C/c2ccccc2)C1 : 97.7
Cc1nc(NC(=S)Nc2ccc(F)cc2)sc1C(=O)NNC(=S)Nc1ccc(F)cc1 : 63.2
CCS(=O)(=O)OCCO[C@H]1Cc2cc3ccc(=O)oc3cc2OC1(C)C : 107

Give growth for all compounds that follow.
1. Oc1ccc2ccccc2c1/C=N\Nc1ccccn1
2. CCCCCCNC(=O)Oc1ccc(/C(=C(/C)Cc2ccc(OC)cc2)c2ccc(OCCN3CCCCC3)cc2)cc1
3. CCOP1(=O)CC(C)=C(Cl)C(P(=O)(O)O)C1 (stereo not drawn)

1: -6.82; 2: 81.9; 3: 102

Below are 6 compounds. Give each one its growth.
1. CCCCN(CCC)CCCCCCCCCCN1CCCc2ccccc21
2. COc1cc(NC(C)CCCN)c2nccc(C)c2c1OC (stereo not drawn)
3. CCn1cc(C(=O)O)c(=O)c2cc(F)c(N3CCN(S(=O)(=O)c4ccc(Cl)cc4)CC3)cc21
4. CCCCCCCCC/C(=N\NC(=O)c1ccncc1)c1ccc(O)c(O)c1O
5. Brc1ccc(-c2nc3ccccc3s2)cc1
6. CCN(CC)c1ccc2nc3ccc(N=Nc4ccc(O)cc4)cc3[n+](-c3ccccc3)c2c1

64.3
99.4
78.1
34.5
75.4
77.6

// each listed compound needs a value for growth
1. CCCC(=O)Nc1ccccc1C(=O)O
2. COc1ccc(-c2nc(SCC(C)C)nc(Nc3ccc(C)cc3)c2C#N)cc1
3. N/C(=N\O)c1ccncc1
4. Nc1nc2c(c3cnccc13)C(c1cccc(Cl)c1)Cc1cnccc1-2 (stereo not drawn)
5. N#Cc1c2cccnc2c2nnc3cc(Cl)c(Cl)cc3n12
6. CC(C)OC(=O)Nn1cnc2ccccc21

[96.4, 72.8, 98.9, 24.2, 80.8, 106]
